Assay: Inhibition of ADP-mediated platelet aggregation in human gel-filtered platelets
observed.property: pIC50
Quick note: pIC50 values are minus log10 of concentrations in mol/L.

{"compound.structure": "O=C(O)CCNC(=O)c1cc(C(=O)NCCC2CCNCC2)ccn1", "pIC50": 5.96}

Task item: State its pIC50: O=C(O)CCNC(=O)c1cncc(C(=O)NCCC2CCNCC2)c1
Reply: 5.70

Task item: State its pIC50: O=C(O)CCNC(=O)c1cccc(C(=O)NCCC2CCNCC2)c1
Reply: 6.28

Task item: State its pIC50: O=C(O)CCNC(=O)c1ccnc(C(=O)NCCC2CCNCC2)c1
Reply: 5.80

Task item: State its pIC50: O=C(O)CCNC(=O)c1cccc(C(=O)NCCC2CCNCC2)n1
Reply: 3.52

Task item: State its pIC50: O=C(O)CCN1Cc2ccc(C(=O)NCCC3CCNCC3)cc2C1=O
Reply: 5.00
